Just for reference, patent US20260242478A1 is where these values come from.

The reader will find reported Anti-CD28 Fab (SEQ ID NOs: 696, 697) signal values listed item by item below.
Target: T1, Anti-CD28 Fab (SEQ ID NOs: 696, 697)
T1 construct: In the phage ELISA the Fab was biotinylated and captured on neutravidin coated plates
T1 sequence (VH, as listed by the source, chain 1 of 2): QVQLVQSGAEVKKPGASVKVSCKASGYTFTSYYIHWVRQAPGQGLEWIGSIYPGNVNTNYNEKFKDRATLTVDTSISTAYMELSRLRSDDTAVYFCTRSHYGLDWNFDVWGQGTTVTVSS
T1 sequence (VL, as listed by the source, chain 2 of 2): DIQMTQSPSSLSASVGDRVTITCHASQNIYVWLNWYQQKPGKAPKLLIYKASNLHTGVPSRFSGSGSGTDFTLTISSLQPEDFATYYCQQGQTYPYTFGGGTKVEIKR
Test: phage binding ELISA; biotinylated Fab on neutravidin plate, clonal phage supernatant, anti-M13 HRP detection
No unit in the answer, only the number.

Reference set, count: 5
In [3]: df
Out[3]:
                        binder  meas_value
0  SCTAGFRIHWPMCF [Phage-1659]        1.06
1  TCAAGAHYEWPQCF [Phage-1653]        1.08
2  TCAAGANYAWPVCL [Phage-1652]        1.09
3  SCAAGAAYAWPWCL [Phage-1660]        1.05
4  SCAAGFHYEWPQCF [Phage-1658]        1.06

Continue with the next binder.
Record request: Anti-CD28 Fab (SEQ ID NOs: 696, 697) signal value, item SCAAGSTWAWPACL [Phage-1657]
1.07
